Values from patent US8816047B2

Assay: Pharmacokinetics and absolute bioavailability in Sprague Dawley rats, IV and SC 4 mg/kg (LC/MS MS)
Assay type: in vivo, rat
Conditions: in vivo, sc, rat, read-out: absolute subcutaneous bioavailability

substance: Ac-IGLHDPTQGTEPNG-NH2 [HIP2B]
bioavailability (%): 87

====

Test: Pharmacokinetics and absolute bioavailability in Sprague Dawley rats, IV and SC 4 mg/kg (LC/MS MS)
Type: in vivo, rat
Details: male, Sprague-Dawley, rat, plasma, subcutaneous, SQ, rat, read-out: T1/2 (converted)
Where no end group is shown, it is not given here.
readoutName: half-life

entrySequence: IGLHDPSHGTLPNGS [INGAP, reference compound]
observedMeasurement: < 1.5 min

====

Assay: Pharmacokinetics and absolute bioavailability in Sprague Dawley rats, IV and SC 4 mg/kg (LC/MS MS)
Format: in vivo, rat
Details: in vivo, SQ, rat, n = 5
Where no end group is shown, it is not given here.
Property: Cmax; scope: individual substances

substance: Ac-IGLHDPTQGTEPNG-NH2 [HIP2B]
Cmax: 2740 ng/mL

substance: IGLHDPTQGTEPNG [HIP2]
Cmax: 32 ng/mL

====

Experiment: Pharmacokinetics and absolute bioavailability in Sprague Dawley rats, IV and SC 4 mg/kg (LC/MS MS)
Assay type: in vivo, rat
Settings: in vivo, SQ, rat
Where no end group is shown, it is not given here.
readoutName: Tmax (min)

substance: Ac-IGLHDPTQGTEPNG-NH2 [HIP2B]
observedMeasurement: 10

substance: IGLHDPTQGTEPNG [HIP2]
observedMeasurement: 4.98

====

Test: In vitro stability of peptides to proteases in human plasma at 37 C (HPLC/LC-MS)
Type: in vitro ADME
Settings: human plasma 37° C., after 60 min; read-out: starting concentration of peptide remaining
Where no end group is shown, it is not given here.
readoutName: remaining at 1 h, 0.498 mg/ml

entrySequence: IGLHDPTQGTEPNGE [HIP3]
readoutName: remaining at 1 h, 0.498 mg/ml
observedMeasurement: ~50%

====

Property: half-life; scope: individual substances
Assay: Pharmacokinetics and absolute bioavailability in Sprague Dawley rats, IV and SC 4 mg/kg (LC/MS MS)
Type: in vivo, rat
Conditions: rat, in vivo, iv, rat, read-out: T1/2 (converted)
Where no end group is shown, it is not given here.
readoutName: half-life (min)

substance: Ac-IGLHDPTQGTEPNG-NH2 [HIP2B]
readoutName: half-life
observedMeasurement: 11.4
--
substance: IGLHDPTQGTEPNG [HIP2]
readoutName: half-life
observedMeasurement: 1.2

====

Test: Pharmacokinetics and absolute bioavailability in Sprague Dawley rats, IV and SC 4 mg/kg (LC/MS MS)
Type: in vivo, rat
Conditions: rat, in vivo, sc, subcutaneous, rat, read-out: terminal phase plasma half-life

substance: Ac-IGLHDPTQGTEPNG-NH2 [HIP2B]
half-life (min): 20

====

Experiment: Pharmacokinetics and absolute bioavailability in Sprague Dawley rats, IV and SC 4 mg/kg (LC/MS MS)
Format: in vivo, rat
Conditions: male, Sprague-Dawley, plasma, IV, rat, estimated
Where no end group is shown, it is not given here.
readoutName: C0

entrySequence: IGLHDPSHGTLPNGS [INGAP, reference compound]
observedMeasurement: 18800 ng/mL

====

Experiment: Pharmacokinetics and absolute bioavailability in Sprague Dawley rats, IV and SC 4 mg/kg (LC/MS MS)
Assay type: in vivo, rat
Settings: rat, in vivo, iv, rat, read-out: terminal phase plasma half-life
readoutName: half-life

substance: Ac-IGLHDPTQGTEPNG-NH2 [HIP2B]
observedMeasurement: 11 min
